# assay.system: Protein deacetylase HDAC6 (Homo sapiens) (UniProt Q9UBN7)
# Sequence (whole entry): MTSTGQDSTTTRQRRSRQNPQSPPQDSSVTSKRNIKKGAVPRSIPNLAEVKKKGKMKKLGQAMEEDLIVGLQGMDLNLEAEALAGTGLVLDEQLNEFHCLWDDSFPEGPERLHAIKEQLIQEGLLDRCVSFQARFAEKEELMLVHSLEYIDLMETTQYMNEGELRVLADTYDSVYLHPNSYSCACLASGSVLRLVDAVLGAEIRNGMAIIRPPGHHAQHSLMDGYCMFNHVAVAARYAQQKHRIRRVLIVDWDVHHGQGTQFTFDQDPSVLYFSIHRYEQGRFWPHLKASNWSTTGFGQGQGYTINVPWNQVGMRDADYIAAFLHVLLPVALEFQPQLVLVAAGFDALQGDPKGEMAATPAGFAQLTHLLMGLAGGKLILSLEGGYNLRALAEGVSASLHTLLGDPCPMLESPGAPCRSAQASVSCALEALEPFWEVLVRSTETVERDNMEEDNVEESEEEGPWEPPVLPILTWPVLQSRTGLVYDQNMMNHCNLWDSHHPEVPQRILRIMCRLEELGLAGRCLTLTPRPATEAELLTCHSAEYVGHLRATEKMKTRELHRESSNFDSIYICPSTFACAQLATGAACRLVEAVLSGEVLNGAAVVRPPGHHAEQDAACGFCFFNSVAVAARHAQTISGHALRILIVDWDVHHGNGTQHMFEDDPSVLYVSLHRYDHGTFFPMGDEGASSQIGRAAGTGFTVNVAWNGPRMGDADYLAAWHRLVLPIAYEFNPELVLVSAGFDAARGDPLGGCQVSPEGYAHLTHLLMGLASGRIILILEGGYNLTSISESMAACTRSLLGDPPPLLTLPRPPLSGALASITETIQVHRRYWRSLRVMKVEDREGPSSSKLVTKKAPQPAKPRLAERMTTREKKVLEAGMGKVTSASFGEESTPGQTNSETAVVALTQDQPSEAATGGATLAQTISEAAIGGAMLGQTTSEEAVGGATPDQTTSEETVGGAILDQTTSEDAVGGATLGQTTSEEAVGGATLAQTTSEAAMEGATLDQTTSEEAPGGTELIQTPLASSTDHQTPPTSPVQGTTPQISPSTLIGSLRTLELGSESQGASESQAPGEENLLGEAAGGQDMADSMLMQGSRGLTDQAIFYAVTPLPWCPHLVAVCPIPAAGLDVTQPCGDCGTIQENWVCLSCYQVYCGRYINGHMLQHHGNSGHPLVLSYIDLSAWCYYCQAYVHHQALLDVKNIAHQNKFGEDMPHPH
# test.conditions: at 10 µM
Among all 5,600 compounds or so, about 150 (2.7%) showed an effect of 50% or more. The full list was thinned out, with strong results kept by preference.
measured.attribute: inhibition (%)

- COc1ccc(COc2ccc(Cc3cnc(N)nc3N)cc2OC)cc1: 58.8
- O=c1c(-c2ccc(O)cc2)coc2cc(O)cc(O)c12: 57.9
- COc1cc2ncc(-c3ccccc3)nc2cc1OC: 97.5
- O=c1c(O)c(-c2ccc(O)cc2O)oc2cc(O)cc(O)c12: 2.84
- COc1ccc(/C=C/C(=O)/C=C(O)/C=C/c2ccc(OC)c(OC)c2)cc1OC: 4.07
- O=C(O)c1ccc(NC(=O)[C@H](Cc2ccc(O)cc2)NC(=O)c2ccccc2)cc1: 3.32
- Nc1nccc(/C=C/c2ccccc2)n1: 96.2
- CC(C)c1ccc(-c2cc(=O)c3ccccc3o2)cc1: 77.3
- O=C(O)c1cc(-c2ccccc2)nc2ccccc12: -1.66
- COC(=O)[C@H](NC(=O)c1cc(-c2ccccc2)nc2ccccc12)c1ccccc1: 0.79
- CN(C)c1ccc2c(c1)Sc1cc(N(C)C)ccc1N2: 32.3
- CC[N+](CC)(CC)CCOc1ccc(/C=C/c2ccccc2)cc1: -3.25
- COc1ccc(-c2oc3c(CC=C(C)C)c(O)cc(O)c3c(=O)c2O)cc1: 6.17
- O=C(Nc1cc2cc[nH]c2cn1)c1ccccc1: 97.7
- Nc1cc2c3ccccc3ccc2c2ccccc12: 23.6
- O=C(O)c1cc(=O)c2ccccc2o1: 10.2
- COc1ccc(C(=O)c2ccc(C)cc2)c(O)c1: 5.59
